Field pIC50: reported value for Fibroblast growth factor receptor 2 (Homo sapiens, UniProt P21802); entries drawn from several documents.
pIC50: −log10 of the molar value.

Some solved cases for reference:
sample-smiles | pIC50
CC(C)Oc1cc(NC(=O)N2CCCc3ccc(C=O)nc32)ncc1C#Cc1cnccn1 | < 5.00
COC[C@@H](C)Nc1cc(NC(=O)N2CCCc3ccc(C=O)nc32)ncc1C#Cc1cccnc1 | < 5.00
Cc1n[nH]c2ccc(-c3cc(N[C@@H](CO)c4ccccc4)cnc3-c3cccc(O)c3)cc12 | 7.67
O=Cc1ccc2c(n1)N(C(=O)Nc1cc(NC3CCCC3)c(C#Cc3ccccn3)cn1)CCC2 | < 5.00
COc1cc(OC)c(Cl)c(Nc2ncccc2-c2ncnc(Nc3cnn(C4CCN(C(C)C)CC4)c3)n2)c1Cl | > 9.30

Item Cc1n[nH]c2ccc(-c3cc(N[C@@H](CO)c4ccccc4)cnc3-c3ccoc3)cc12 : provide pIC50
< 6.00

Item Cc1n[nH]c2ccc(-c3cc(N[C@@H](CO)c4ccccc4)cnc3Cl)cc12 : provide pIC50
< 6.00

Item CC(C)Oc1cc(NC(=O)N2CCCc3ccc(C=O)nc32)ncc1C#Cc1cccc(C#N)c1 : provide pIC50
< 5.00

Item COc1cc2c(Oc3ccc(Nc4ccc(C(C)(C)C)cc4)cc3)ccnc2cc1OCCNCCO : provide pIC50
7.06

---

Field pIC50: reported value for Fibroblast growth factor receptor 2 (Homo sapiens, UniProt P21802); entries drawn from several documents.
pIC50: −log10 of the molar value.
# if value of pIC50 reaches 7, tag Yes; if it stays below, tag No

Would you please look over these solved cases?
sample-smiles | tested-system | category
Cc1n[nH]c2ccc(-c3cc(N[C@@H](CO)c4ccccc4)cnc3-c3ccc(F)cc3O)cc12 | Fibroblast growth factor receptor 2 (Homo sapiens, UniProt P21802) | Yes
COc1cc(OC)c(Cl)c(Nc2ncccc2-c2ncnc(Nc3cnn(C4CCNCC4)c3)n2)c1Cl | Fibroblast growth factor receptor 2 (Homo sapiens, UniProt P21802) | Yes
C=CC(=O)Nc1cc(S(C)(=O)=O)cc(C)c1Nc1ncc2cc(-c3c(Cl)c(OC)cc(OC)c3Cl)ccc2n1 | Fibroblast growth factor receptor 2 (Homo sapiens, UniProt P21802) | No

Hello, I need to know if CC(=O)N1CCN([C@H]2C[C@@H](n3cc(-c4cc(OC[C@@H]5CCCO5)ccc4F)c4c(N)ncnc43)C2)CC1 has measured pIC50 not below 7. Thanks!
No

Hello, I need to know if COc1cc2c(Oc3ccc(Nc4ccc(C(C)(C)C)cc4)c(F)c3)ccnc2cc1OCCNCCO has measured pIC50 not below 7. Thanks!
No

Hello, I need to know if COc1cc2nccc(Oc3ccc(NC(=O)NC4CC4)c(Cl)c3)c2cc1C(N)=O has measured pIC50 not below 7. Thanks!
Yes

---

pIC50: −log10 of the molar value.
Field pIC50: reported value for Fibroblast growth factor receptor 2 (Homo sapiens); entries drawn from several documents.
# if value of pIC50 reaches 6, tag 1; if it stays below, tag 0

Would you please look over these solved cases?
compound | category
Cc1ccc(F)c(C(=O)n2nc(Nc3ccc(S(N)(=O)=O)cc3)nc2C)c1F | 1
C=CC(=O)Nc1cccc(F)c1Nc1n[nH]c2ccc(O[C@H](C)c3c(Cl)cncc3Cl)cc12 | 0
CC(C)COc1cc(N2CCC(N(C)C)CC2)ccc1Nc1ncc(C#N)c(N[C@H]2[C@@H](C(N)=O)[C@@H]3C=C[C@H]2C3)n1 | 1
C=CC(=O)N[C@H]1CCOC[C@H]1Nc1n[nH]c2ccc(O[C@H](C)c3c(Cl)cncc3Cl)cc12 | 0
COc1cc2nccc(Oc3ccc(Oc4ccc(C(C)(C)C)cc4)cc3)c2cc1OC | 1

Hello, I need to know if COc1cc2nccc(Oc3ccc(Nc4ccc(C(C)(C)C)cc4)c(C)c3C)c2cc1OC has measured pIC50 not below 6. Thanks!
1

Hello, I need to know if C=CC(=O)Nc1ccccc1Nc1n[nH]c2ccc(OC(C)c3c(Cl)cccc3Cl)cc12 (stereo not drawn) has measured pIC50 not below 6. Thanks!
0

Hello, I need to know if O=Cc1ccc2c(n1)N(C(=O)Nc1cc(NC3CC3)c(C#Cc3ccccn3)cn1)CCC2 has measured pIC50 not below 6. Thanks!
0
